Tested on: Saccharomyces cerevisiae
Assay: protein stability index of tFT-peptide fusion (C-terminal peptide) (PSI (0-1 scale)); higher = more stable (slower turnover);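 note: PSI is a weighted mean of sequencing reads over stability bins, variants kept only with over 10 reads, mCherry proximal and sfGFP distal, peptide attached via GGGS linker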
Settings: genetic background: wild type; temperature: 30 C

{"ordered residues": "RWGCHFWVGFVG", "protein stability index": 0.544}
{"ordered residues": "GIDVGCEWYQGG", "protein stability index": 0.698}
{"ordered residues": "LGAHRPLLSVLH", "protein stability index": 0.661}
{"ordered residues": "SGEVMGAMVLHE", "protein stability index": 0.773}
{"ordered residues": "LPYSPPSLTLPR", "protein stability index": 0.666}
{"ordered residues": "RVFVGLVDFLFW", "protein stability index": 0.471}
{"ordered residues": "HPTLPLLSHPTS", "protein stability index": 0.798}
{"ordered residues": "SFPRYRWRAATE", "protein stability index": 0.67}

====

Test system: Saccharomyces cerevisiae
Assay: protein stability index of tFT-peptide fusion (C-terminal peptide) (PSI (0-1 scale)); higher = more stable (slower turnover)
Conditions: genetic background: das1 deletion; temperature: 30 C

{"ordered residues": "VSISLCVLCPVF", "protein stability index": 0.258}
{"ordered residues": "GFSEGRLTIPVY", "protein stability index": 0.343}
{"ordered residues": "RWALPALWAYAA", "protein stability index": 0.583}
{"ordered residues": "GWGVFFVMRIQV", "protein stability index": 0.225}
{"ordered residues": "DVVVIFGILCYC", "protein stability index": 0.156}
{"ordered residues": "GAVRGWGWVSFV", "protein stability index": 0.595}
{"ordered residues": "WSCVGLWGRFCC", "protein stability index": 0.637}
{"ordered residues": "LPPFLSSLPSSP", "protein stability index": 0.66}
{"ordered residues": "FPCIFFFCLFIL", "protein stability index": 0.251}
{"ordered residues": "IRSLRPFLLPLF", "protein stability index": 0.643}
{"ordered residues": "VSLSWFSCCFVG", "protein stability index": 0.439}
{"ordered residues": "SVPRTRAPRLIS", "protein stability index": 0.658}
{"ordered residues": "GSLLNLSLRWLV", "protein stability index": 0.664}
{"ordered residues": "FRLFSLWFCWVR", "protein stability index": 0.227}
{"ordered residues": "VVFSLLLWLFIS", "protein stability index": 0.316}
{"ordered residues": "RLVGVRWEVCNL", "protein stability index": 0.78}
{"ordered residues": "IVRLGRWLGLSC", "protein stability index": 0.613}
{"ordered residues": "RFHTFVFCLLCL", "protein stability index": 0.432}
{"ordered residues": "CTLVVGLFVLVV", "protein stability index": 0.209}
{"ordered residues": "IFLKFGLLRSLL", "protein stability index": 0.744}
{"ordered residues": "IFFVLVFFPGFF", "protein stability index": 0.366}
{"ordered residues": "IIFACFYGVFLM", "protein stability index": 0.141}
{"ordered residues": "VAWWVCIRSCCG", "protein stability index": 0.427}
{"ordered residues": "VVVHFVLVCSTS", "protein stability index": 0.141}
{"ordered residues": "KKKKKKKIKIMS", "protein stability index": 0.636}
{"ordered residues": "GCLFMQVSLFWR", "protein stability index": 0.147}
{"ordered residues": "WLCLAVLVRFPC", "protein stability index": 0.25}
{"ordered residues": "FLASLCFFPLLC", "protein stability index": 0.42}
{"ordered residues": "PVSEPCAWRIIA", "protein stability index": 0.677}
{"ordered residues": "LYVLNILSFVCV", "protein stability index": 0.137}
{"ordered residues": "FGVLLVWWYGLF", "protein stability index": 0.253}
{"ordered residues": "FCVLLFCAVSDL", "protein stability index": 0.239}

====

Tested on: Saccharomyces cerevisiae
Assay: protein stability index of tFT-peptide fusion (C-terminal peptide) (PSI (0-1 scale)); higher = more stable (slower turnover)
Settings: genetic background: wild type; temperature: 30 C
# Lookup of reported protein stability index keyed by entry
experimental endpoint: protein stability index

{"ordered residues": "SVSMEGCVSVRG", "observed result": 0.701}
{"ordered residues": "SQLRSSTSARYV", "observed result": 0.692}
{"ordered residues": "RGGGGAWAGGVA", "observed result": 0.734}
{"ordered residues": "CGGRPPADLRLS", "observed result": 0.69}
{"ordered residues": "YVEVIDERYPCV", "observed result": 0.757}
{"ordered residues": "RKKKNRKERQKK", "observed result": 0.673}
{"ordered residues": "VAVPGRFTGEGV", "observed result": 0.649}
{"ordered residues": "GHGEGPGRDLGG", "observed result": 0.648}
{"ordered residues": "GVCWVTAGLWAI", "observed result": 0.61}
{"ordered residues": "KEQESKAISYPV", "observed result": 0.718}
{"ordered residues": "CPTLSSHLLFPS", "observed result": 0.659}
{"ordered residues": "PGQRSRGPPGRA", "observed result": 0.737}
{"ordered residues": "LSPSLPLPNPSP", "observed result": 0.729}
{"ordered residues": "SPTPLLPLASSP", "observed result": 0.695}
{"ordered residues": "KTGIQTEIRYKE", "observed result": 0.637}
{"ordered residues": "PSHPSPPPPAPP", "observed result": 0.692}
{"ordered residues": "PLPPLFLPPPPL", "observed result": 0.708}
{"ordered residues": "RREGGRQRGGSG", "observed result": 0.67}
{"ordered residues": "VPSCWVSFPPSP", "observed result": 0.732}
{"ordered residues": "GRQILMLGYMVA", "observed result": 0.548}
{"ordered residues": "RRINRRGPRMME", "observed result": 0.62}
{"ordered residues": "SGKVNNKEGKWK", "observed result": 0.686}
{"ordered residues": "SPTPPPPSPLAP", "observed result": 0.726}
{"ordered residues": "FFVGAGVTEGLG", "observed result": 0.692}
{"ordered residues": "VTFWISLVYVLV", "observed result": 0.218}
{"ordered residues": "MALAVRVVKCGA", "observed result": 0.384}
{"ordered residues": "TSTQVMYVSCCL", "observed result": 0.63}
{"ordered residues": "PPSPPPPLYPPA", "observed result": 0.683}
{"ordered residues": "TKRKEKHKIIGK", "observed result": 0.705}
{"ordered residues": "GQDNSEVLGSVQ", "observed result": 0.668}
{"ordered residues": "QKPHGDVSFQVM", "observed result": 0.662}
{"ordered residues": "STGACCGTVRLL", "observed result": 0.642}
{"ordered residues": "GTMGWYSISRRL", "observed result": 0.519}
{"ordered residues": "VCVSLNVGGVRF", "observed result": 0.658}
{"ordered residues": "AQTASQSPYRVG", "observed result": 0.731}
{"ordered residues": "PPLLPLSQPLPH", "observed result": 0.683}
{"ordered residues": "PAPRPPSPLSAP", "observed result": 0.687}
{"ordered residues": "FFRYWLRWGWGV", "observed result": 0.695}
{"ordered residues": "PQSSGVSPIPPP", "observed result": 0.77}
{"ordered residues": "GCLIAGGIDCPP", "observed result": 0.66}
{"ordered residues": "PRPTPPHPPITR", "observed result": 0.824}
{"ordered residues": "HSSALFSSRLRF", "observed result": 0.722}
{"ordered residues": "CPALPPAPLSPL", "observed result": 0.725}
{"ordered residues": "CGACGFGLGVWV", "observed result": 0.701}
{"ordered residues": "AFYERLQEWIRA", "observed result": 0.613}
{"ordered residues": "EVGFHRRWVALS", "observed result": 0.189}
{"ordered residues": "NMCHVYTIIPSK", "observed result": 0.632}
{"ordered residues": "SDMCLGRVFCFL", "observed result": 0.63}
{"ordered residues": "GKSHLGGSLTVL", "observed result": 0.671}
{"ordered residues": "SLTYTSVAKAEV", "observed result": 0.615}
{"ordered residues": "PWQSSPFTPALT", "observed result": 0.649}
{"ordered residues": "VRQGERGGGLGD", "observed result": 0.747}
{"ordered residues": "SHTSPSTPPPSP", "observed result": 0.681}
{"ordered residues": "QCIYVCKKTPTI", "observed result": 0.679}
{"ordered residues": "CEVCRGSDRCDV", "observed result": 0.609}
{"ordered residues": "KMKRSNADAVEP", "observed result": 0.678}
{"ordered residues": "YFGRGKLGVVRT", "observed result": 0.705}
{"ordered residues": "LFLPLPRCHALP", "observed result": 0.704}
{"ordered residues": "PPLPLPPPIRPP", "observed result": 0.639}
{"ordered residues": "PPRGDPRAYLPP", "observed result": 0.654}
{"ordered residues": "GTFCLFTPCVWM", "observed result": 0.716}
{"ordered residues": "GLSSNVTSSTLS", "observed result": 0.685}
{"ordered residues": "SPLSPLPPALSL", "observed result": 0.695}
{"ordered residues": "GSTLWGRAWGAR", "observed result": 0.724}

Origin of values: the supplement of paper PMC10724198
